- measurement-target: Corticotropin-releasing factor receptor 2/Corticotropin-releasing factor-binding protein (Homo sapiens, UniProt P24387+Q13324)
- Sequence (Q13324 whole entry): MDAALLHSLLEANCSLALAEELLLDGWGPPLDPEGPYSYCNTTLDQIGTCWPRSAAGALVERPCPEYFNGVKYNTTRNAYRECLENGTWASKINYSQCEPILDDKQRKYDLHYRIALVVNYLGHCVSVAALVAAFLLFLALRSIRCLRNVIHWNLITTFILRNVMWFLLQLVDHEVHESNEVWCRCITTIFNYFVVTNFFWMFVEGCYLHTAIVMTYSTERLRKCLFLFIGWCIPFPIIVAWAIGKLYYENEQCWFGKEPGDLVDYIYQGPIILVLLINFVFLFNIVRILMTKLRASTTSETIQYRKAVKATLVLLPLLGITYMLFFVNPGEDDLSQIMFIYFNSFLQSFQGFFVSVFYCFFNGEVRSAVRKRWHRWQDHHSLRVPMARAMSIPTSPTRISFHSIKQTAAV
- Sequence (P24387 whole entry): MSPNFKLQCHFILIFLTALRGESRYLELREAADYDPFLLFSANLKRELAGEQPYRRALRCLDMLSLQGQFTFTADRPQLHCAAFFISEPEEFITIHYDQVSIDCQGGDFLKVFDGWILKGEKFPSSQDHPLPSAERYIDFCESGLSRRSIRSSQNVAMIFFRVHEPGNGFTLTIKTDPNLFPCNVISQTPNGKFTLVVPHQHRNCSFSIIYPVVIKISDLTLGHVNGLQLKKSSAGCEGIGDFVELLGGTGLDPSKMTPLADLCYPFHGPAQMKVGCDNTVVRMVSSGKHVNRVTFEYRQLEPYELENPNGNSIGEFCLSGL
- protocol-summary: Dose Response confirmation of uHTS hits for small molecule antagonists of the CRF-binding protein and CRF-R2 receptor complex.
- Type: functional
- run-parameters: read-out: IC50_Mean
The source made the active and inactive calls. Rule as the data show it: actives have a measured IC50 and inactives only a lower limit.

{"compound": "OC(CN1C2=NCCN2c2ccccc21)c1ccc2c(c1)OCO2 (stereo unspecified)", "IC50": "> 47.1 µM (inactive)"}
{"compound": "CCOC(=O)CSC1=C(C#N)C(c2ccc(Cl)cc2)C(C(=O)OC)C(=O)N1 (stereo unspecified)", "IC50": "26.5 µM (active)"}
{"compound": "CC(=O)N1CCN(S(=O)(=O)c2cccc(C(=O)NCc3ccc(F)cc3)c2)CC1", "IC50": "> 47.1 µM (inactive)"}
{"compound": "Brc1cccc(C2CC(c3ccccc3)n3nnnc3N2)c1 (stereo unspecified)", "IC50": "> 47.1 µM (inactive)"}
{"compound": "Cc1ccccc1CNC(=O)c1ccccc1N", "IC50": "> 47.1 µM (inactive)"}
{"compound": "COc1ccc(/C=N/NS(=O)(=O)c2ccccc2)cc1OC(=O)c1ccc(C)cc1", "IC50": "> 47.1 µM (inactive)"}
